Recorded log10(EC90) by entry
tested on: Human immunodeficiency virus 1; experiment: Anti-HIV-1 activity determined as dose required to reduce p24 antigen levels.; type: functional
On a log10 scale: recorded EC90, unit nM.

[
  {
    "compound": "CCOCn1c(Cc2ccccc2)c(C(C)C)c(=O)[nH]c1=O [EMIVIRINE]",
    "recorded.measurement": 1.15
  },
  {
    "compound": "CCC(c1cc(O)nc(SC2CCCC2)n1)c1c(F)cccc1F (stereo not given)",
    "recorded.measurement": 1.90
  },
  {
    "compound": "Cc1c(C(C)c2c(F)cccc2F)nc(SC2CCCC2)[nH]c1=O (stereo in doubt; 3w)",
    "recorded.measurement": 0.78
  },
  {
    "compound": "CC(c1cc(=O)[nH]c(SC2CCCC2)n1)c1c(F)cccc1F (stereo not given)",
    "recorded.measurement": 1.18
  }
]

Please tell me: log10(EC90) of Cc1c(Cc2c(F)cccc2F)nc(SC(C)C)[nH]c1=O , system Human immunodeficiency virus 1?
1.41

Please tell me: log10(EC90) of CC(C)Sc1nc(Cc2c(F)cccc2F)cc(=O)[nH]1 , system Human immunodeficiency virus 1?
1.62

Please tell me: log10(EC90) of CC(C)Sc1nc(O)cc(C(C)c2c(F)cccc2F)n1 (stereo not given) , system Human immunodeficiency virus 1?
1.62

Please tell me: log10(EC90) of O=c1cc(Cc2c(F)cccc2F)nc(SC2CCCC2)[nH]1 , system Human immunodeficiency virus 1?
1.90

Please tell me: log10(EC90) of Cc1c(Cc2c(F)cccc2F)nc(SC2CCCC2)[nH]c1=O , system Human immunodeficiency virus 1?
1.60

Please tell me: log10(EC90) of CCC(c1cc(O)nc(SC(C)C)n1)c1c(F)cccc1F (stereo not given) , system Human immunodeficiency virus 1?
1.18

---

tested on: MT4; assay: CC50/EC50 ratio of the compound; format: functional
Recorded Selectivity index by entry
Lab note: write the figure by itself, no unit.

# count of solved cases: 5
[
  {
    "compound": "CCC(c1cc(O)nc(SC2CCCC2)n1)c1c(F)cccc1F (configuration not stated)",
    "Selectivity index": 1333
  },
  {
    "compound": "CC(c1ccccc1)c1cc(O)nc(SC2CCCCC2)n1 (configuration not stated)",
    "Selectivity index": 248
  },
  {
    "compound": "CCC(c1cc(O)nc(SC2CCCC2)n1)c1c(Cl)cccc1Cl (configuration not stated)",
    "Selectivity index": 23.4
  },
  {
    "compound": "CCC(c1cc(O)nc(SC(C)C)n1)c1cccc2ccccc12 (configuration not stated)",
    "Selectivity index": 33.3
  },
  {
    "compound": "CCOCn1c(Cc2ccccc2)c(C(C)C)c(=O)[nH]c1=O [EMIVIRINE]",
    "Selectivity index": 6666
  }
]

# context switch: different compound, same Selectivity index
Please tell me: Selectivity index of CC(C)Sc1nc(O)cc(C(C)c2c(Cl)cccc2Cl)n1 (configuration not stated) , system MT4?
97.5

---

Recorded pIC50 by entry
target: UniProt Q72547; assay: Inhibitory activity against HIV-1 recombinant reverse transcriptase.
Recall that pIC50 is obtained by taking minus log10 of the concentration measured in molar.

# count of solved cases: 5
[
  {
    "molecule": "CCC(C)Sc1nc(O)c(C)c(C(C)c2c(F)cccc2F)n1 (configuration not stated)",
    "reported.property": "pIC50",
    "recorded.measurement": 7.70
  },
  {
    "molecule": "CC(C)Sc1nc(O)cc(C(C)c2cccc3ccccc23)n1 (configuration not stated)",
    "reported.property": "pIC50",
    "recorded.measurement": 5.24
  },
  {
    "molecule": "CSc1nc(O)cc(C(C)c2c(F)cccc2F)n1 (configuration not stated)",
    "reported.property": "pIC50",
    "recorded.measurement": 6.70
  },
  {
    "molecule": "CCC(c1cc(O)nc(SC2CCCCC2)n1)c1cccc2ccccc12 (configuration not stated)",
    "reported.property": "pIC50",
    "recorded.measurement": 5.85
  },
  {
    "molecule": "CC(c1cc(O)nc(SC2CCCC2)n1)c1cccc2ccccc12 (configuration not stated)",
    "reported.property": "pIC50",
    "recorded.measurement": 6.40
  }
]

# context switch: different molecule, same pIC50
Requested read-out: pIC50. Entry: CCC(c1ccccc1)c1cc(O)nc(SC(C)C)n1 (configuration not stated)
5.64

---

Recorded IC50 by entry
biological target: Human immunodeficiency virus type 1 reverse transcriptase (Human immunodeficiency virus 1, UniProt Q72547); test: Inhibitory activity against HIV-1 recombinant reverse transcriptase.
Could you give me the number in nM? Just the number is fine.

# count of solved cases: 8
[
  {
    "molecule": "Cc1c(C(C)c2c(F)cccc2F)nc(SC2CCCC2)[nH]c1=O (stereo in doubt; 3w)",
    "IC50 [nM]": 5
  },
  {
    "molecule": "CC(c1ccccc1)c1cc(O)nc(SC2CCCC2)n1 (stereo unspecified)",
    "IC50 [nM]": 2100
  },
  {
    "molecule": "CC(C)Sc1nc(O)cc(C(C)c2ccccc2)n1 (stereo unspecified)",
    "IC50 [nM]": 2300
  },
  {
    "molecule": "Cc1c(C(C)c2c(F)cccc2F)nc(SC2CCCC2)[nH]c1=O (stereo in doubt; [+]3w)",
    "IC50 [nM]": 8
  },
  {
    "molecule": "CCC(c1cc(O)nc(SC(C)C)n1)c1cccc2ccccc12 (stereo unspecified)",
    "IC50 [nM]": 800
  },
  {
    "molecule": "CCC(c1ccccc1)c1cc(O)nc(SC2CCCCC2)n1 (stereo unspecified)",
    "IC50 [nM]": 3700
  },
  {
    "molecule": "CSc1nc(O)c(C)c(C(C)c2c(F)cccc2F)n1 (stereo unspecified)",
    "IC50 [nM]": 20
  },
  {
    "molecule": "Cc1c(O)nc(SC(C)C)nc1C(C)c1c(F)cccc1F (stereo unspecified)",
    "IC50 [nM]": 19
  }
]

Requested read-out: IC50. Entry: CC(c1cc(O)nc(SC2CCCCC2)n1)c1cccc2ccccc12 (stereo unspecified)
2600

Requested read-out: IC50. Entry: CC(c1cc(=O)[nH]c(SC2CCCC2)n1)c1c(F)cccc1F (stereo unspecified)
50

Requested read-out: IC50. Entry: Cc1c(C(C)c2c(F)cccc2F)nc(SC2CCCC2)[nH]c1=O (stereo in doubt; [-]3w)
1000

---

tested on: MT4; test: CC50/EC50 ratio of the compound; type: functional
Recorded Selectivity index by entry

# count of solved cases: 6
[
  {
    "compound": "CC(c1cc(=O)[nH]c(SC2CCCC2)n1)c1c(F)cccc1F (configuration not stated)",
    "Selectivity index": ">6666"
  },
  {
    "compound": "CCC(C)Sc1nc(O)c(C)c(Cc2c(F)cccc2F)n1 (configuration not stated)",
    "Selectivity index": ">4000"
  },
  {
    "compound": "CC(c1cc(O)nc(SC2CCCC2)n1)c1c(Cl)cccc1Cl (configuration not stated)",
    "Selectivity index": 78.3
  },
  {
    "compound": "Cc1c(C(C)c2c(F)cccc2F)nc(SC2CCCC2)[nH]c1=O (stereo in doubt; 3w)",
    "Selectivity index": ">33333"
  },
  {
    "compound": "CCC(c1cc(O)nc(SC(C)C)n1)c1c(Cl)cccc1Cl (configuration not stated)",
    "Selectivity index": ">500"
  },
  {
    "compound": "CCC(C)Sc1nc(O)c(C)c(C(C)c2c(F)cccc2F)n1 (configuration not stated)",
    "Selectivity index": 6666
  }
]

Requested read-out: Selectivity index. Entry: CCC(C)Sc1nc(O)cc(Cc2c(F)cccc2F)n1 (configuration not stated)
>5000

---

tested on: MT4; experiment: CC50/EC50 ratio of the compound; format: functional
reported.property: Selectivity index
Lab note: write the figure by itself, no unit.

# count of solved cases: 3
[
  {
    "compound": "CCC(c1cc(O)nc(SC2CCCCC2)n1)c1c(F)cccc1F (stereo not given)",
    "Selectivity index": 2600
  },
  {
    "compound": "CCC(C)Sc1nc(O)cc(C(C)c2ccccc2)n1 (stereo not given)",
    "Selectivity index": 870
  },
  {
    "compound": "CCCCSc1nc(O)cc(C(C)c2c(F)cccc2F)n1 (stereo not given)",
    "Selectivity index": 2857
  }
]

Requested read-out: Selectivity index. Entry: CC(C)Sc1nc(O)cc(C(C)c2cccc3ccccc23)n1 (stereo not given)
108
